pIC50: −log10 of the molar value.
Entries with their measured pIC50, system telomerase enzyme (Homo sapiens):
Measurement name: pIC50

[A] COc1ccc2c(=O)cc(-c3ccc(N)c(N)c3)oc2c1OC
[B] O=c1cc(-c2ccccc2)oc2c(O)c(O)ccc12 [Compound 1, 7,8-dihydroxy-2-phenyl-4H-chromen-4-one]
[C] COc1ccc(-c2cc(=O)c3ccc(O)c(O)c3o2)cc1OC
[D] CC(=O)Oc1ccc(-c2cc(=O)c3ccc(O)c(O)c3o2)cc1OC(C)=O
[E] O=c1cc(-c2ccc(O)cc2)oc2c(O)c(O)ccc12
Challenge: Rank the 5 compounds: largest pIC50 first, smallest last. As an answer, provide the labels arranged in the order called for.
Response given: D, E, A, C, B
(D: 6.19, E: 5.52, A: 5.13, C: 4.92, B: 4.48)

[A] COc1ccc(-c2cc(=O)c3ccc(O)c(O)c3o2)cc1O
[B] O=c1cc(-c2cccc(O)c2)oc2c(O)c(O)ccc12
Challenge: Given the two records A and B , choose the one whose pIC50 value is lower. Please indicate the selected item by its label.
Response given: B
(B: 4.47, A: 4.93)

[I] COc1ccc(-c2cc(=O)c3cc(Cl)c(OC)c(OC)c3o2)cc1OC
[II] O=c1c(Cl)c(-c2ccc(O)c(O)c2)oc2c(O)c(O)ccc12
[III] COc1ccc2c(=O)cc(-c3ccc4[nH]cnc4c3)oc2c1OC
[IV] COc1ccc(-c2cc(=O)c3ccc(OC)c(OC)c3o2)cc1O
[V] COc1ccc2c(=O)cc(-c3ccc4[nH]c(=O)[nH]c4c3)oc2c1OC
Challenge: Hey, quick one: sort these by pIC50, low to high? # answer = labels listed in requested order
Response given: V, IV, I, III, II
(V: 4.72, IV: 5.06, I: 5.27, III: 5.66, II: 6.10)

These entries and their values trace back to patent US20020160983A1.
